- Assay Details: Cell cytotoxicity test: HT22 cells co-treated with 5 mM glutamate and compound, MTT readout
- Type: cell-based, mouse
- Condition Context: mouse, HT22 cells (mouse hippocampal neuron)
Structures can show the parent of a compound that is named as a salt.
Listing of recorded CC50 at 24 h by entry.
Quantity Measured: CC50 at 24 h (µM)

[[record]]
compound = "Oc1cc2c(c3c1NC(c1ccccc1)CO3)C[C@@H]1NCC[C@]23CCCC[C@H]13 (stereo partly shown) [Example 8, TFA salt]"
quantity_measured = "CC50 at 24 h"
comparative_sign = "="
readout_number = 8.1

[[record]]
compound = "CN1CCOc2c(O)cc3c(c21)C[C@@H]1NCC[C@]32CCCC[C@H]12 [Example 4, TFA salt]"
quantity_measured = "CC50 at 24 h"
comparative_sign = ">"
readout_number = 100

[[record]]
compound = "CC1COc2c3c(cc(O)c2N1)[C@]12CCCC[C@@H]1[C@H](C3)NCC2 (stereo partly shown) [Example 6, TFA salt]"
quantity_measured = "CC50 at 24 h"
comparative_sign = ">"
readout_number = 100

[[record]]
compound = "Oc1cc2c(c3c1OCCCN3)C[C@@H]1NCC[C@]23CCCC[C@H]13 [Example 2, TFA salt]"
quantity_measured = "CC50 at 24 h"
comparative_sign = ">"
readout_number = 100

[[record]]
compound = "Oc1cc2c(c3c1[nH]c1ccccc13)C[C@@H]1NCC[C@]23CCCC[C@H]13 [Example 12, TFA salt]"
quantity_measured = "CC50 at 24 h"
comparative_sign = "="
readout_number = 49.8

[[record]]
compound = "Oc1cc2c(c3c1OCCN3)C[C@@H]1NCC[C@]23CCCC[C@H]13 [Example 1, TFA salt]"
quantity_measured = "CC50 at 24 h"
comparative_sign = ">"
readout_number = 100

[[record]]
compound = "Oc1cc2c(c3c1OCCO3)C[C@@H]1NCC[C@]23CCCC[C@H]13 [Example 5, TFA salt]"
quantity_measured = "CC50 at 24 h"
comparative_sign = ">"
readout_number = 100

[[record]]
compound = "Cc1ccc2[nH]c3c(O)cc4c(c3c2c1)C[C@@H]1NCC[C@]42CCCC[C@H]12 [Example 14, TFA salt]"
quantity_measured = "CC50 at 24 h"
comparative_sign = "="
readout_number = 5.7

[[record]]
compound = "Oc1cc2c(c3c1NCCO3)C[C@@H]1NCC[C@]23CCCC[C@H]13 [Example 7, TFA salt]"
quantity_measured = "CC50 at 24 h"
comparative_sign = "="
readout_number = 13.5

[[record]]
compound = "Oc1cc2c(c3nc4ccccc4nc13)C[C@@H]1NCC[C@]23CCCC[C@H]13 [Example 10, TFA salt]"
quantity_measured = "CC50 at 24 h"
comparative_sign = "="
readout_number = 10.7


* * *

Overview of recorded pEC50 for various molecules
- Test system: HT22 cells (mouse hippocampal neuron)
- Assay Details: Cell cytotoxicity test: HT22 cells co-treated with 5 mM glutamate and compound, MTT readout
- Format: cell-based
- Condition Context: Mus musculus, HT-22, five millimolar glutamate co-treated, 24 h, read-out: EC50: neuroprotective effect against glutamate toxicity
pEC50: −log10 of the molar value. Counter-ions that a name gives are not always drawn.
Quantity Measured: pEC50

[[record]]
molecule = "Oc1cc2c(c3c1NCCO3)C[C@@H]1NCC[C@]23CCCC[C@H]13 [Example 7, TFA salt]"
experimental_target = "HT22 cells (mouse hippocampal neuron)"
quantity_measured = "pEC50"
readout_number = 6.19

[[record]]
molecule = "Oc1cc2c(c3nc4ccccc4nc13)C[C@@H]1NCC[C@]23CCCC[C@H]13 [Example 10, TFA salt]"
experimental_target = "HT22 cells (mouse hippocampal neuron)"
quantity_measured = "pEC50"
readout_number = 6.45

[[record]]
molecule = "Oc1cc2c(c3c1[nH]c1ccccc13)C[C@@H]1NCC[C@]23CCCC[C@H]13 [Example 12, TFA salt]"
experimental_target = "HT22 cells (mouse hippocampal neuron)"
quantity_measured = "pEC50"
readout_number = 6.15

[[record]]
molecule = "Oc1cc2c(c3c1OCCCN3)C[C@@H]1NCC[C@]23CCCC[C@H]13 [Example 2, TFA salt]"
experimental_target = "HT22 cells (mouse hippocampal neuron)"
quantity_measured = "pEC50"
readout_number = 4.56

